target_of_assay: PKG1β (h) (Homo sapiens)
Construct: purchased Eurofins Pharma Discovery Services UK Ltd (contract assay service)
Sequence (Q13976 1-686 isoform Q13976-2): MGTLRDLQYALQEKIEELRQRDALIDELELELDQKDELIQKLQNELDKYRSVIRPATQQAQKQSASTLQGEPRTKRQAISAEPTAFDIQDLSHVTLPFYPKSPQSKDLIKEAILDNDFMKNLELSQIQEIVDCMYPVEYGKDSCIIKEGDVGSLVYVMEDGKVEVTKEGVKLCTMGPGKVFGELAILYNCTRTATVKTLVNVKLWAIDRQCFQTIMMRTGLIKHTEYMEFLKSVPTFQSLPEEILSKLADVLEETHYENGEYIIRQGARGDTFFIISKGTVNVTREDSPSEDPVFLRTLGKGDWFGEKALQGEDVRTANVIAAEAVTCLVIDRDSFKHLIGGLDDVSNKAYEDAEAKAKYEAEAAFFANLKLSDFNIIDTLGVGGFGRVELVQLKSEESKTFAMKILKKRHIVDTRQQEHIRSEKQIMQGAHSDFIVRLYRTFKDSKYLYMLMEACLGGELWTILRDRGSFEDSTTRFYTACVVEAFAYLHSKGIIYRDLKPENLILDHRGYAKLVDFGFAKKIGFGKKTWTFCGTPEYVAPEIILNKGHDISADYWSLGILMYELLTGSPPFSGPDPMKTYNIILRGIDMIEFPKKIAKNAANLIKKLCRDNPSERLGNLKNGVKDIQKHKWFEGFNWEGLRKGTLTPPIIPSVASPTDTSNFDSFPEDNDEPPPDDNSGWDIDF
run_description: PKG1β kinase activity assay, cell free
Type: biochemical
measurement_setup: cell free, 10 μM cGMP, 40 minutes at room temperature; read-out: PKG1β IC50
No end group written: not given here.
Kindly state IC50 for each of the entries shown.

Can you look up IC50 on PKG1β (h) (Homo sapiens) for RRRRRRRRRRRRRRRR-NH2 [IK01600, RRRRRRRRRRRRRRRR-NH2] ?
4 nM

Can you look up IC50 on PKG1β (h) (Homo sapiens) for KKKKKKKKKK-NH2 [IK00K00, KKKKKKKKKK-NH2, reference compound] ?
> 1000 nM

Can you look up IC50 on PKG1β (h) (Homo sapiens) for HHHHHHHHHH-NH2 [IK00010, HHHHHHHHHH-NH2, reference compound] ?
> 1000 nM

Can you look up IC50 on PKG1β (h) (Homo sapiens) for RRRRRRRRRRRRRRRRRRRR-NH2 [IK00200] ?
6 nM
